System: HL-60
Assay Protocol: NCI tumour cell line growth inhibition, 48 h
Activity calls are given as the source filed them. Cut-off read from the data, not from the text of the source: active = GI50 up to about 1.1 µM and inactive = higher.
Hi there, use one of these labels in your reply, thanks! active, inactive

>  <Compound>
C[n+]1c(-c2ccc(/C=N\N3CCN(/N=C/c4ccc(-c5cn6ccsc6[n+]5C)cc4)CC3)cc2)cn2ccsc21

>  <Assigned Class>
inactive

$$$$
>  <Compound>
CSC12c3cc(C)n(-c4ccc(I)cc4)c3CC(C)(C)CN1C(=O)C2Oc1ccccc1 (stereo not drawn)

>  <Assigned Class>
inactive

$$$$
>  <Compound>
O=C(CC1(O)C(=O)Nc2ccc(Br)cc21)c1ccc(Cl)cc1 (stereo not drawn)

>  <Assigned Class>
inactive

$$$$
>  <Compound>
O=C(CCc1nnc2s/c(=C\c3ccc(Cl)c(Cl)c3)c(=O)n12)Nc1ccc(Cl)c(Cl)c1

>  <Assigned Class>
inactive

$$$$

What outcome does the record of this test show for CO[C@@H]1C[C@H](OC(N)=O)[C@@H]2C=C[C@@H]3/C=C(C)/C=C/[C@@H](C)[C@H]([C@H](C)[C@H](O)[C@@H](C)NC(C)=O)OC(=O)/C=C/C=C(C)\C=C\[C@]3(C)[C@@H]2C1 ? active

* * *

Test system: DMS-114
Assay Protocol: NCI tumour cell line growth inhibition, 48 h
The source made the active and inactive calls. Rule as the data show it: active = GI50 up to about 1.1 µM and inactive = higher.
GI50 overview

What value of GI50 has been reported for the following compound? N#CC(/C(CCC(=O)Nc1ccc(Cl)cc1)=N/NC(=O)c1cc2ccccc2cc1O)c1ccccc1 (stereo unspecified) 25.4 µM (inactive)

What value of GI50 has been reported for the following compound? CCOC(=O)CC(C)C1(C=O)CCCCC1=O (stereo unspecified) 23 µM (inactive)

What value of GI50 has been reported for the following compound? CSc1nc(Cl)c(Br)c(Sc2nc(N)nc3nc[nH]c23)n1 4.74 µM (inactive)

What value of GI50 has been reported for the following compound? Nn1c(-c2cccc(Cl)c2)nc2ccccc2c1=O > 100 µM (inactive)

What value of GI50 has been reported for the following compound? CCN(CC)CCNC(=O)c1nn(-c2ccc(Cl)cc2)c2c1CCc1cc(OC)ccc1-2 2.67 µM (inactive)

What value of GI50 has been reported for the following compound? CCOC(=O)N1CCN(P(=O)(Nc2ccc3[nH]c(NC(=O)OC)nc3c2)Oc2ccccc2)CC1 (stereo unspecified) > 100 µM (inactive)

What value of GI50 has been reported for the following compound? COc1ccc(NC(=O)CC/C(CC(=O)c2ccco2)=N/NC(N)=S)cc1 > 100 µM (inactive)

What value of GI50 has been reported for the following compound? C[C@H]1CC[P+](Cc2ccccc2)(c2ccccc2)C1 (stereo partly specified) 23 µM (inactive)

What value of GI50 has been reported for the following compound? CN(C)CC1CCCC(CN(C)C)C1=O (stereo unspecified) 1.48 µM (inactive)

What value of GI50 has been reported for the following compound? CC(=O)CC(=O)OC1CC(C)CCC1C(C)C (stereo unspecified) 37.2 µM (inactive)

What value of GI50 has been reported for the following compound? C=CCc1cc(-c2cc(CC=C)c(O)c(CNCCCl)c2)cc(CNCCCl)c1O 21.1 µM (inactive)

What value of GI50 has been reported for the following compound? CCCCCCCCC[C@@H]1CC(=O)OCC2OC(O[C@H](CCCCCCCCC)CC(=O)OCC3OC(O[C@H](CCCCCCCCC)CC(=O)OCC4OC(O1)C(O)C(O)C4O)C(O)C(O)C3O)C(O)C(O)C2O (stereo partly specified) 8.89 µM (inactive)

What value of GI50 has been reported for the following compound? CCOC(=O)C(C)NC(=O)NC12CC3CC(CC(F)(C3)C1)C2 (stereo unspecified) > 100 µM (inactive)

What value of GI50 has been reported for the following compound? COCCOCOC(C)(C)[C@H](CCOC(C)=O)O[Si](c1ccccc1)(c1ccccc1)C(C)(C)C 12.6 µM (inactive)

What value of GI50 has been reported for the following compound? C/N=C(\N=c1/ss/c(=N\C)n1C)N(C)C.[O-][Cl+3]([O-])([O-])O > 100 µM (inactive)

What value of GI50 has been reported for the following compound? O=C1C(Cl)C(c2ccccc2)N1n1cnc2ccccc2c1=O (stereo unspecified) > 100 µM (inactive)

What value of GI50 has been reported for the following compound? Cc1cccc(C)c1NC(=O)/C(=N/NC(N)=S)C(C)C(=O)c1ccc(Cl)cc1 (stereo unspecified) > 100 µM (inactive)

What value of GI50 has been reported for the following compound? NC(=O)Cn1c(=O)[nH]c(=O)c2[nH]cnc21 > 100 µM (inactive)

What value of GI50 has been reported for the following compound? N#C/C(=C1\N=NC(N)=C(c2ccc(Cl)cc2)C1=O)c1ccc(Cl)cc1 > 100 µM (inactive)

* * *

Test system: KM12
Assay Protocol: NCI tumour cell line growth inhibition, 48 h
Activity calls are given as the source filed them. Cut-off read from the data, not from the text of the source: active = GI50 up to about 1.1 µM and inactive = higher.
Property Name: GI50

>  <Molecule>
COC(=O)c1cc(-c2cccn2C)c2c(c1C(=O)OC)c1ccccc1n2C

>  <Property Name>
GI50

>  <Result>
53.7 µM (inactive)

$$$$
>  <Molecule>
CC(/C=C/C=C\C=C\C=C(/C)C(=O)NC(C)CO)=C\C(C)C(O)/C(C)=C/C(C)CCc1ccccc1 (configuration not stated)

>  <Property Name>
GI50

>  <Result>
2.32 µM (inactive)

$$$$
>  <Molecule>
COC(=O)[C@]1(C)CC[C@]2(C)CC[C@]3(C)C4[C@H]5Oc6c(cc7c(c6C)CCC6[C@@]7(C)CC[C@@]7(C)C8[C@](C)(CCC[C@@]8(C)C(=O)OC)CC[C@]67C)O[C@H]5c5c(cc6c(c5C)O[C@@]5(C)C7=CC=C8[C@@](C)(CC[C@@]9(C)[C@@H]%10C[C@](C)(C(=O)OC)CC[C@]%10(C)CC[C@]89C)C7=CC(=O)[C@@]5(O)O6)[C@]4(C)CC[C@@]3(C)C2C1 (some centres not stated)

>  <Property Name>
GI50

>  <Result>
> 12.5 µM (inactive)

$$$$

Kindly review the next molecule as well.
What value of GI50 has been reported for the following molecule? COc1ccc(-c2cc3cc(Cl)cc(Cl)c3oc2=O)cc1OC 31.6 µM (inactive)

* * *

System: SK-MEL-5
Assay Protocol: NCI tumour cell line growth inhibition, 48 h
The source made the active and inactive calls. No stated cut-off is given here; in the data, active = GI50 up to about 1.1 µM and inactive = higher.
Property Name: GI50

Some solved entries appear below for comparison.
>  <Compound>
CC1=C(C(=O)CC(=O)C(=O)Nc2ccc(C)c(C)c2)Sc2ccccc2N1

>  <Property Name>
GI50

>  <Result>
> 100 µM (inactive)

$$$$
>  <Compound>
COC(=O)[C@@H]1N2C(=S)N(c3ccccc3)C(=O)[C@H]2SC1(C)C

>  <Property Name>
GI50

>  <Result>
> 100 µM (inactive)

$$$$
>  <Compound>
COc1ccccc1-c1nc(-c2ccccc2O)n[nH]1

>  <Property Name>
GI50

>  <Result>
> 100 µM (inactive)

$$$$
>  <Compound>
CC(C)CSCC1OC(n2cnc3c(N)nccc32)C(O)C1O (stereo unspecified)

>  <Property Name>
GI50

>  <Result>
43.8 µM (inactive)

$$$$
>  <Compound>
S=c1[nH]c2c(Cl)c(Cl)c(Cl)c(Cl)c2[nH]1

>  <Property Name>
GI50

>  <Result>
17.6 µM (inactive)

$$$$

What value of GI50 has been reported for the following compound? C=C1[C@H](OC(C)=O)[C@H]2[C@@H](OC(C)=O)[C@@H](C)C[C@]2(C)C(=O)[C@H](C)/C=C/C(C)(C)C(=O)[C@H](OCC(C)C)[C@H]1OC(C)=O > 25 µM (inactive)

What value of GI50 has been reported for the following compound? COC(=O)c1cc(-c2cccn2C)c2c(c1C(=O)OC)c1ccccc1n2C 44.3 µM (inactive)

What value of GI50 has been reported for the following compound? Cc1cccc2[s+]snc12 > 100 µM (inactive)

What value of GI50 has been reported for the following compound? C=CCc1cc(-c2cc(CC=C)c(O)c(CNCCCl)c2)cc(CNCCCl)c1O 15.3 µM (inactive)

What value of GI50 has been reported for the following compound? COC(=O)C(CCC1C=CN(S(=O)(=O)c2ccc(C)cc2)C1)/N=C/c1ccccc1 (stereo unspecified) 22.2 µM (inactive)

What value of GI50 has been reported for the following compound? N=C/N=C/C(=S)O[C@@H]1C(=O)N2CCC[C@@]23CCCC[C@@H]13 > 12.5 µM (inactive)

What value of GI50 has been reported for the following compound? Nc1c(C(=O)O)nnc2cc(Cl)c(Cl)cc12 > 100 µM (inactive)

What value of GI50 has been reported for the following compound? COc1ccc2c3c1OC1C(=O)C=CC4(CC2)N(C)CCC314 (stereo unspecified) 10.4 µM (inactive)

What value of GI50 has been reported for the following compound? CC1=C2C(=O)c3ccccc3C(=O)[C@H]2C[C@@H](N2CCCCCC2=O)O1 16.1 µM (inactive)

What value of GI50 has been reported for the following compound? CCCCCCCCC[C@@H]1CC(=O)OCC2OC(O[C@H](CCCCCCCCC)CC(=O)OCC3OC(O[C@H](CCCCCCCCC)CC(=O)OCC4OC(O1)C(O)C(O)C4O)C(O)C(O)C3O)C(O)C(O)C2O (stereo partly specified) 12.5 µM (inactive)

What value of GI50 has been reported for the following compound? COC(=O)CC1(O)C=CC(=O)C=C1 3.29 µM (inactive)

What value of GI50 has been reported for the following compound? NC(CCc1nc(-c2ccccc2)cs1)C(=O)O (stereo unspecified) > 100 µM (inactive)

What value of GI50 has been reported for the following compound? O=C1C(Br)=C(c2ccccc2)O/C1=C/C(=O)c1ccc(Br)cc1 52.8 µM (inactive)

What value of GI50 has been reported for the following compound? CC1(C)C2CCC1(CC(=O)O)C(Cl)C2 (stereo unspecified) > 100 µM (inactive)

What value of GI50 has been reported for the following compound? COc1ccc(C(C#N)NNC(=O)c2ccccc2O)cc1OC (stereo unspecified) 8.95 µM (inactive)

What value of GI50 has been reported for the following compound? CC(=O)c1cc2c(s1)C(=O)c1ccsc1C2=O 0.0559 µM (active)
